Tested on: human PKK mRNA
Test: Antisense inhibition of human PKK mRNA in HepaRG cells, 1,000 nM, MOE/deoxy/cEt oligonucleotides (Example 3)
Assay type: cell-based
Settings: Table 28; HepaRG cells, 1,000 nM antisense oligonucleotide; human PKK mRNA
Strand notation (5' to 3'): a small letter for the sugar, then the base; units joined by * are phosphorothioate-linked, units joined directly phosphodiester-linked; [ ] holds rarer units or linkages, { } end groups; capitals alone tell only the bases. e = 2'-O-(2-methoxyethyl) (MOE); k = constrained ethyl (cEt); [5mC] = 5-methylcytosine; d = 2'-deoxy (DNA)
Property: % inhibition (%)

INSERT INTO results (substance, target, recorded_result) VALUES
  ('548498 (antisense e[5mC]*e[5mC]*kG*dA*dT*dA*dA*d[5mC]*dA*dG*dA*d[5mC]*d[5mC]*kG*kG*e[5mC]) [compound 548498]', 'human PKK mRNA', 71),
  ('548486 (e[5mC]*eG*kT*dG*dG*dT*dT*dA*dG*d[5mC]*d[5mC]*dT*dG*kA*k[5mC]*eA; antisense) [compound 548486]', 'human PKK mRNA', 68),
  ('548471 (eG*e[5mC]*kG*dG*dA*dA*dA*dA*d[5mC]*dT*dG*dG*d[5mC]*k[5mC]*kG*eT; antisense) [compound 548471]', 'human PKK mRNA', 17),
  ('548513 (antisense e[5mC]*e[5mC]*kT*dG*d[5mC]*dT*dG*dA*dT*dT*dG*dT*dG*kT*k[5mC]*eT) [compound 548513]', 'human PKK mRNA', 16),
  ('548522 (antisense eA*eG*kG*dT*dA*dT*dT*dG*dA*d[5mC]*d[5mC]*dG*d[5mC]*k[5mC]*kA*eG) [compound 548522]', 'human PKK mRNA', 55),
  ('548487 (eT*e[5mC]*k[5mC]*dA*dT*dG*dT*d[5mC]*dA*dG*dA*dG*dT*kT*kG*e[5mC]; antisense) [compound 548487]', 'human PKK mRNA', 71);

====

Tested on: human PKK mRNA
Assay: Dose-dependent antisense inhibition of human PKK in HepaRG cells, 0.11-3.00 uM (Example 6)
Type: cell-based
Settings: 0.11-3.00 μM
Strand notation (5' to 3'): a small letter for the sugar, then the base; units joined by * are phosphorothioate-linked, units joined directly phosphodiester-linked; [ ] holds rarer units or linkages, { } end groups; capitals alone tell only the bases. e = 2'-O-(2-methoxyethyl) (MOE); k = constrained ethyl (cEt); [5mC] = 5-methylcytosine; d = 2'-deoxy (DNA)
Property: IC50 (nM)

INSERT INTO results (substance, property, inequality_sign, recorded_result) VALUES
  ('548479 (eA*eG*kG*d[5mC]*d[5mC]*dA*dT*dT*dT*dG*dA*dT*d[5mC]*k[5mC]*kG*eA; antisense) [compound 548479]', 'IC50', '=', 400),
  ('548655 (antisense e[5mC]*e[5mC]*k[5mC]*dG*dA*dG*dG*dT*d[5mC]*dA*d[5mC]*dA*dT*kA*kA*eT) [compound 548655]', 'IC50', '>', 3000),
  ('548004 (eA*eG*kT*dA*dA*d[5mC]*d[5mC]*dA*dG*dA*dG*d[5mC]*dT*k[5mC]*k[5mC]*e[5mC]; antisense) [compound 548004]', 'IC50', '=', 300),
  ('547947 (eG*eG*kA*dA*d[5mC]*dT*dT*dG*dG*dT*dG*dT*dG*k[5mC]*k[5mC]*eA; antisense) [compound 547947]', 'IC50', '=', 300),
  ('547946 (eG*eA*kA*d[5mC]*dT*dT*dG*dG*dT*dG*dT*dG*d[5mC]*k[5mC]*kA*e[5mC]; antisense) [compound 547946]', 'IC50', '=', 500),
  ('548069 (e[5mC]*e[5mC]*kA*dA*d[5mC]*dA*dG*dT*dT*dG*dG*dT*dA*kT*kA*eA; antisense) [compound 548069]', 'IC50', '=', 1900),
  ('547849 (antisense eA*eA*kT*dG*dT*d[5mC]*dT*d[5mC]*dG*dA*dT*dG*dG*k[5mC]*kA*eA) [compound 547849]', 'IC50', '=', 300),
  ('548125 (antisense e[5mC]*eT*kA*dG*dA*d[5mC]*dT*d[5mC]*dT*dG*dG*dA*d[5mC]*kT*kG*e[5mC]) [compound 548125]', 'IC50', '=', 300),
  ('548547 (antisense eG*eT*kG*d[5mC]*dG*dA*dT*dT*dA*dA*dG*d[5mC]*d[5mC]*k[5mC]*k[5mC]*eA) [compound 548547]', 'IC50', '=', 400),
  ('547835 (e[5mC]*e[5mC]*kA*dG*dA*dA*dA*d[5mC]*dT*dG*d[5mC]*dA*d[5mC]*k[5mC]*kT*eG; antisense) [compound 547835]', 'IC50', '=', 900),
  ('548180 (eT*e[5mC]*kA*dT*dG*dG*dA*dG*dA*dT*d[5mC]*dT*d[5mC]*kA*kG*eT; antisense) [compound 548180]', 'IC50', '=', 400),
  ('548155 (e[5mC]*eG*kT*dG*d[5mC]*dT*dG*dA*dA*dA*dG*d[5mC]*dG*kG*kG*e[5mC]; antisense) [compound 548155]', 'IC50', '=', 300),
  ('548043 (eA*eT*kT*dT*dG*dT*dG*dA*dG*dA*dA*dA*dG*kG*kT*eG; antisense) [compound 548043]', 'IC50', '=', 300),
  ('548005 (eA*eG*kA*dG*dT*dA*dA*d[5mC]*d[5mC]*dA*dG*dA*dG*k[5mC]*kT*e[5mC]; antisense) [compound 548005]', 'IC50', '=', 400),
  ('548170 (eA*eG*kT*dT*dG*d[5mC]*dG*dA*d[5mC]*d[5mC]*dT*d[5mC]*dG*k[5mC]*kA*eT; antisense) [compound 548170]', 'IC50', '=', 2000),
  ('547943 (eT*eG*kG*dT*dG*dT*dG*d[5mC]*d[5mC]*dA*d[5mC]*dT*dT*kT*k[5mC]*eA; antisense) [compound 547943]', 'IC50', '=', 200),
  ('547862 (antisense eG*eA*k[5mC]*dT*d[5mC]*d[5mC]*dT*d[5mC]*dT*d[5mC]*dA*dT*dA*kT*k[5mC]*eA) [compound 547862]', 'IC50', '=', 300),
  ('547808 (e[5mC]*eA*kT*d[5mC]*dT*dG*dG*d[5mC]*dA*dG*dT*dA*dT*kT*kG*eG; antisense) [compound 547808]', 'IC50', '=', 1100),
  ('547861 (antisense eA*e[5mC]*kT*d[5mC]*d[5mC]*dT*d[5mC]*dT*d[5mC]*dA*dT*dA*dT*k[5mC]*kA*eA) [compound 547861]', 'IC50', '=', 500),
  ('548521 (antisense e[5mC]*eA*kG*d[5mC]*dT*d[5mC]*d[5mC]*d[5mC]*dT*dT*dA*d[5mC]*dT*kA*kG*eG) [compound 548521]', 'IC50', '>', 3000),
  ('548410 (antisense eA*eG*kT*dA*dT*d[5mC]*dA*d[5mC]*dT*dG*dT*dA*d[5mC]*kT*kA*eG) [compound 548410]', 'IC50', '=', 200),
  ('547851 (antisense eT*eA*kA*dA*dT*dG*dT*d[5mC]*dT*d[5mC]*dG*dA*dT*kG*kG*e[5mC]) [compound 547851]', 'IC50', '=', 400),
  ('548128 (eA*eT*kT*dG*d[5mC]*d[5mC]*dT*dA*dG*dA*d[5mC]*dT*d[5mC]*kT*kG*eG; antisense) [compound 548128]', 'IC50', '=', 1100),
  ('548348 (antisense eT*eG*kA*dG*dT*dG*dA*dT*dG*d[5mC]*d[5mC]*dT*dT*k[5mC]*k[5mC]*eA) [compound 548348]', 'IC50', '=', 400);
